Assignment: determine reported pIC50 for the given binders.
Molecular target: T1, CEGPCR4 (C. elegans)
T1 construct: Expressed in CHO cells
T1 chain: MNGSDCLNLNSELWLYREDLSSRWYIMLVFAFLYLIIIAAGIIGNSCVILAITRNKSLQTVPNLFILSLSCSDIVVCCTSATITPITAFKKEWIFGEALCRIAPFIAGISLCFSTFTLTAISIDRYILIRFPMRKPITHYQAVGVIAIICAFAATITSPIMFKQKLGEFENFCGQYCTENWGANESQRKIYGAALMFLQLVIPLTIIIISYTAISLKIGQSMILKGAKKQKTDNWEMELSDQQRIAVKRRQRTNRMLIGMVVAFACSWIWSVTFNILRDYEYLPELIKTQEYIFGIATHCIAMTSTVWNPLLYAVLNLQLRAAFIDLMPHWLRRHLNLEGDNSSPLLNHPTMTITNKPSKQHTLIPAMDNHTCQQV
Assay: competition binding assay, CEGPCR4/CHO membranes, vs [125I-Y]DVPGVLRF-NH2
pIC50: −log10 of the molar value. Where no end group is shown, it is not given here. [ ]: non-standard residue; d: D form. Tyr(3-I) = N[C@@H](Cc1ccc(O)c(I)c1)C(=O)O

Below are worked cases with known answers.
1) VPGVLRF-NH2 [VPGVLRF-NH2] : 7.22 to 9.00
2) VLRF-NH2 (also called C-terminal tetrapeptide VLRF-NH2) [VLRF-NH2] : ~6.40
3) SDNFMRF-NH2 [SDNFMRF-NH2] : 3.30 to 4.30
4) YVPGVLRF-NH2 (Synthetic) [Y-VPGVLRF-NH2] : 7.22 to 9.00
5) YPGVLRF-NH2 (Synthetic) [Y-PGVLRF-NH2] : 7.22 to 9.00

Below is a list of binders. For each, state its recorded pIC50.
1. TNRNFLRF-NH2 [TNRNFLRF-NH2 (Lobster peptide II)]
2. GVLRF-NH2 [GVLRF-NH2]
3. PDNFMRF-NH2 [PDNFMRF-NH2]
4. [Tyr(3-I)]GVLRF-NH2 (N-terminus assumed; SMILES CC(C)C[C@H](NC(=O)[C@@H](NC(=O)CNC(=O)[C@@H](N)Cc1ccc(O)c(I)c1)C(C)C)C(=O)N[C@@H](CCCNC(=N)N)C(=O)N[C@@H](Cc1ccccc1)C(N)=O, Synthetic) [3-Iodo-Y-GVLRF-NH2]
5. YGVLRF-NH2 (Synthetic) [Y-GVLRF-NH2]

1. 3.30 to 4.30
2. 7.22 to 9.00
3. 3.30 to 4.30
4. 7.22 to 9.00
5. 7.22 to 9.00
